Molecular target: BRD9 (Homo sapiens)
Sequence (Q9H8M2 whole entry): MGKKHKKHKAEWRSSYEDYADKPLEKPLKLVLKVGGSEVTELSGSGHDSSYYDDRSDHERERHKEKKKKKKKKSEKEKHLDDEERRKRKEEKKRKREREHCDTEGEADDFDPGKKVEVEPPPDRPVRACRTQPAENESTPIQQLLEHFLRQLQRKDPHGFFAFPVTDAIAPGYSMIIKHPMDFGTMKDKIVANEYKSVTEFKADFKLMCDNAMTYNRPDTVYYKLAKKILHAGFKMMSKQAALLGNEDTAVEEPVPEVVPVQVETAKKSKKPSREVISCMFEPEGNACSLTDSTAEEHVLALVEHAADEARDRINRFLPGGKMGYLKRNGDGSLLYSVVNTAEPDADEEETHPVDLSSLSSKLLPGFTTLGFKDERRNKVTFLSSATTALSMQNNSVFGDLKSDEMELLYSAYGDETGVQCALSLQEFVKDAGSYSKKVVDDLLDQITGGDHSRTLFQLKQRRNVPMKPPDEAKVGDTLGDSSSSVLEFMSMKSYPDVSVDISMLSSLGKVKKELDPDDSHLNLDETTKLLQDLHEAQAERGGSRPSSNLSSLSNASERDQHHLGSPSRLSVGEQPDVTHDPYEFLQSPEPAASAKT
Experiment: BRD9 degradation, HiBiT-BRD9 KI HEK293 (LgBiT) cells, NanoGlo Lytic Endpoint assay (Assay Protocol 1)
Type: cell-based
Settings: HEK293; Table 2; BRD9 degradation, Assay Protocol 1; 1 μM compound at 6 h of treatment; read-out: Assay 1 Dmax
measured parameter: Dmax at 1 µM

Below, 4 molecules whose answers are already recorded.
[
  {
    "molecule": "COc1cc(-c2cn(C)c(=O)c(C)c2C)cc(OC)c1CN1CCN(Cc2cccc(C3CCCN3C(=O)/C(C#N)=C/c3cccc(Br)n3)c2)CC1 (mixture of isomers)",
    "Dmax at 1 µM": "> 75%"
  },
  {
    "molecule": "COc1cc(-c2cn(C)c(=O)c3cnccc23)cc(OC)c1CN(C)Cc1ccc2c(c1)C(C)N(C(=O)/C(C#N)=C/C(C)(C)C)CC2 (mixture of isomers)",
    "Dmax at 1 µM": "40 to 70%"
  },
  {
    "molecule": "COc1cc(-c2cn(C)c(=O)c(C)c2C)cc(OC)c1CN1CCN(Cc2cccc3c2CCN(C(=O)/C(C#N)=C\\c2nc(C)cs2)C3C)CC1 (mixture of isomers)",
    "Dmax at 1 µM": "70 to 75%"
  },
  {
    "molecule": "COc1cc(-c2cn(C)c(=O)c3cnccc23)cc(OC)c1CN1CCN(Cc2cccc3c2CCN(C(=O)/C(C#N)=C/c2cccc(Br)n2)C3C)CC1 (mixture of isomers)",
    "Dmax at 1 µM": "40 to 70%"
  }
]

Let us examine a further case.
query: Param item = COc1cc(-c2cn(C)c(=O)c3cnccc23)cc(OC)c1CN1CC2CC1CN2Cc1cccc2c1CCN(C(=O)/C(C#N)=C/C(C)(C)C)C2C (single isomer, unassigned) ; retrieve measured Dmax at 1 µM.
result: 40 to 70%

---

Molecular target: BRD9 (Homo sapiens)
Assay: Degradation of BRD9 (IF), immunofluorescence in MV4-11 cells, 24 hours (Assay Protocol 2)
Assay type: cell-based
Set-up: A suspension of MV4-11 cells (ATCC CRL-9591) was prepared; host or cells: MV4-11
Settings: MV4-11, 24 h, Table 2; BRD9 degradation (IF), Assay Protocol 2, MV4-11 cells; read-out: Assay 2 DCmax
Entries and their Dmax values follow.

[
  {
    "molecule": "COc1cc(-c2cn(C)c(=O)c(C)c2C)cc(OC)c1CN1CCN(Cc2cccc3c2CCN(C(=O)/C(C#N)=C/c2nccs2)C3C)CC1 (mixture of isomers)",
    "Dmax": "70 to 75%"
  }
]

query: Param item = COc1cc(-c2cn(C)c(=O)c(C)c2C)cc(OC)c1CN1CCN(Cc2cccc3c2CCN(C(=O)/C(C#N)=C/C2(C)COC2)C3C)CC1 (mixture of isomers) ; retrieve measured Dmax.
result: 40 to 70%

query: Param item = COc1cc(-c2cn(C)c(=O)c(C)c2C)cc(OC)c1CN1CCCN(Cc2cccc3c2CCN(C(=O)/C(C#N)=C/C(C)(C)C)C3C)CC1 (mixture of isomers) ; retrieve measured Dmax.
result: 40 to 70%

---

Target: BRD9 (Homo sapiens)
Experiment: BRD9 degradation, HiBiT-BRD9 KI HEK293 (LgBiT) cells, NanoGlo Lytic Endpoint assay (Assay Protocol 1)
Format: cell-based
Settings: HEK293; Assay protocol 1; BRD9 degradation; read-out: Dmax
Entries and their Dmax values follow.

Below, 3 compounds whose answers are already recorded.
[
  {
    "compound": "COc1cc(-c2cn(C)c(=O)c(C)c2C)cc(OC)c1CN1CCN(c2cccc(C3CCCN3C(=O)/C(C#N)=C/C(C)(C)C)c2)CC1 (mixture of isomers) [Compound B41]",
    "Dmax": "> 75%"
  },
  {
    "compound": "CCCC(c1ccccc1CCC(=O)N1CCN(Cc2c(OC)cc(-c3cn(C)c(=O)c(C)c3C)cc2OC)CC1)N(C)C(=O)/C(C#N)=C/c1nccs1 (mixture of isomers) [Compound B186]",
    "Dmax": "> 75%"
  },
  {
    "compound": "COc1cc(-c2cn(C)c(=O)c(C)c2C)cc(OC)c1CN(C)C1CCN(C(=O)/C(C#N)=C/C23CC(C2)C3)CC1 (mixture of isomers) [Compound B187]",
    "Dmax": "> 75%"
  }
]

query: Please tell me: Dmax of COc1cc(-c2cn(C)c(=O)c(C)c2C)cc(OC)c1CN1CCC2(CC1)CCN(c1cccc3c1CCN(C(=O)/C(C#N)=C/C(C)(C)C)C3C)CC2 (mixture of isomers) [Compound B39] , system BRD9 (Homo sapiens)?
result: > 75%

query: Please tell me: Dmax of COc1cc(-c2cn(C)c(=O)c(C)c2C)cc(OC)c1CN1CCN(Cc2cccc3c2CCN(C(=O)/C(C#N)=C/c2ccnc(C)n2)C3C)CC1 (mixture of isomers) [Compound B9] , system BRD9 (Homo sapiens)?
result: > 75%
